Molecular target: Oxysterols receptor LXR-beta (Homo sapiens) (UniProt P55055)
Sequence (P55055 whole entry, looked up, the tested form may be a part): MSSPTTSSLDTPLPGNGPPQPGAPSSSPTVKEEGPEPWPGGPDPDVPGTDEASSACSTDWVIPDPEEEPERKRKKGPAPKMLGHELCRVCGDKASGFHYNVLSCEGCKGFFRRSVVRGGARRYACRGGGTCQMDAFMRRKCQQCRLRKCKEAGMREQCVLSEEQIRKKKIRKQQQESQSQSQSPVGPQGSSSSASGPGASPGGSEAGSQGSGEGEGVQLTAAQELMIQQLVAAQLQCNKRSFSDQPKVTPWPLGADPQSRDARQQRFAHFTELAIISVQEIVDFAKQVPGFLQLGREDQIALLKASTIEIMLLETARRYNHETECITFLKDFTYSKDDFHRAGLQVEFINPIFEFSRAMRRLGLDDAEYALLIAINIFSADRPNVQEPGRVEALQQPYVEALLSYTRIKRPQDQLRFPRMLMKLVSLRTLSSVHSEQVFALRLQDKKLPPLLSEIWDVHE
Assay: LXR agonists, Gal4 luciferase reporter, confirmation, counter-screen for hcDAF-12 agonist project, cell-based, luminescence, HEK293, H. contortus campaign (AID 743027)
Conditions: HEK293 Gal4-LXR tk-luc reporter, 24 h, at 6.8 µM, stronger effect = higher value, normalized: DMSO 0%, positive control 100%
Some of the results follow.
MEASURED_ENDPOINT: activation (%)
Express your answer in %, writing the number without its unit.

Query string: Would you kindly share the measured activation for Cc1c(C(=O)Nc2ccccn2)oc2ccc(Br)cc12 ?
Result string: 1.8

Query string: Would you kindly share the measured activation for CC(C#N)OC(=O)c1cccnc1SCC(=O)Nc1ccc2c(c1)OCO2 (stereo unspecified) ?
Result string: 0.05

Query string: Would you kindly share the measured activation for Cc1cccc(/C(N)=N/OC(=O)c2ccccc2Cl)c1 ?
Result string: 2.08

Query string: Would you kindly share the measured activation for COc1ccc(C2=NN(C(=O)c3ccccc3C(=O)O)C(c3ccccc3O)C2)cc1 (stereo unspecified) ?
Result string: 0.16

Query string: Would you kindly share the measured activation for COc1ccc(OCc2cc(C(=O)N3CCCC3)no2)c2ccccc12 ?
Result string: 0.67

Query string: Would you kindly share the measured activation for CCc1ccc(NC(=O)N2CCc3ccccc3C2)cc1 ?
Result string: 0.65

Query string: Would you kindly share the measured activation for CC(C)C(=O)Nc1ccc2c(c1)oc1ccccc12 ?
Result string: 0.52

Query string: Would you kindly share the measured activation for Cc1cc(C)c2nc(NC(=O)C3CCCO3)sc2c1 (stereo unspecified) ?
Result string: 1.55

Query string: Would you kindly share the measured activation for Cc1ccccc1C(=O)N[C@H](C(=O)N1CCC[C@H]1C(=O)NCc1ccccc1)C(C)C ?
Result string: -0.15

Query string: Would you kindly share the measured activation for N#Cc1c(NC(=O)C2CCCO2)sc2c1CCCCC2 (stereo unspecified) ?
Result string: 1.18

Query string: Would you kindly share the measured activation for Clc1cccc(-c2nc3nc4ccccc4nc3n2Cc2ccco2)c1 ?
Result string: 0.26

* * *

Assay: VP16 transactivation inhibitors, counter-screen for SRC1 inhibitor project, cell-based, luminescence, high throughput (AID 588824)
Conditions: cell-based VP16 transactivation luciferase luminescence; at 3.6 µM
Activity calls are given as the source filed them. No stated cut-off is given here; in the data, active means inhibition above about 25%; inactive means the rest.
Hi! Could you answer with just one of these? active, inactive

Query string: Could you please tell me the result logged for C#CC[N+](C)(C)CCCCCCCCCC in this assay?
Result string: inactive

Query string: Could you please tell me the result logged for N=c1c2c(n(Cc3ccc(F)cc3)c3c1CCC3)CCCC2 in this assay?
Result string: active

Query string: Could you please tell me the result logged for CN(C)c1ccc(C(=S)Nc2ccccc2)cc1 in this assay?
Result string: inactive

Query string: Could you please tell me the result logged for Nc1ncn([C@@H]2O[C@H](CO)[C@@H](O)[C@H]2O)c(=O)n1 in this assay?
Result string: active

Query string: Could you please tell me the result logged for COc1cccc(N2CC(NS(=O)(=O)c3cccnc3)CC2=O)c1 (stereo not drawn) in this assay?
Result string: inactive

Query string: Could you please tell me the result logged for CCOc1ccc(C(=O)Nc2cnn(Cc3ccc(Cl)c(Cl)c3)c2)cc1 in this assay?
Result string: active

Query string: Could you please tell me the result logged for O=C1NC(=S)N/C1=C/c1cccnc1 in this assay?
Result string: active

Query string: Could you please tell me the result logged for COc1ccc(CCNC(=O)C(=O)NCC2CCCN2S(=O)(=O)c2ccccc2)cc1OC (stereo not drawn) in this assay?
Result string: inactive

* * *

Test system: transactivating tegument protein VP16 (Human herpesvirus 1), Gal4-VP16 luciferase reporter
Test: VP16 transactivation inhibitors, counter-screen for SRC3 inhibitor project, cell-based, luminescence, high throughput (AID 588794)
Settings: mammalian cells, VP16-driven luciferase reporter luminescence; at 3.6 µM
Calls of active or inactive are those of the source. Cut-off read from the data, not from the text of the source: active = inhibition above about 30%; inactive = the rest.
Hi! Could you answer with just one of these? Y for active, N for inactive

Query string: Could you please tell me the result logged for C=Cc1ccc(CC2(C)C(=O)Nc3ccc(-c4cccnc4)cc32)cc1 (stereo unspecified) in this assay?
Result string: Y

Query string: Could you please tell me the result logged for Cc1ccc2nc(C(F)(F)F)c(C#N)c(N)c2c1 in this assay?
Result string: N

Query string: Could you please tell me the result logged for CN1OC[C@@H]2CN[C@H](c3ccc(-c4cc5ccccc5o4)cc3)C[C@@H]21 in this assay?
Result string: Y

Query string: Could you please tell me the result logged for Cc1nc(SCC(=O)NCc2ccc3c(c2)OCO3)c(C#N)c2c1CCCC2 in this assay?
Result string: N

Query string: Could you please tell me the result logged for COc1ccc(C)cc1N=Nc1ccc(O)c2ncccc12 in this assay?
Result string: N

Query string: Could you please tell me the result logged for O[C@@H]1[C@@H](O)C=C2CCN3Cc4cc5c(cc4[C@H]1C23)OCO5 (stereo partly specified) in this assay?
Result string: Y

Query string: Could you please tell me the result logged for COc1ccc(-c2csc3ncnc(NCCCO)c23)cc1 in this assay?
Result string: Y

Query string: Could you please tell me the result logged for CC(O)CC(=O)OC[C@]12CC[C@H]3[C@@](C)(CC[C@H]4C(C)(C)CCC[C@]34C)[C@@H]1CC(C1=CC(=O)OC1O)O2 (stereo partly specified) in this assay?
Result string: Y

Query string: Could you please tell me the result logged for O=C1CC(c2ccc3c(c2)OCO3)Sc2nc3ccccc3n21 (stereo unspecified) in this assay?
Result string: N

Query string: Could you please tell me the result logged for CNc1ncnc(Sc2nc(N)nc3nc[nH]c23)c1[N+](=O)[O-] in this assay?
Result string: N

Query string: Could you please tell me the result logged for COc1ccc([C@@]23Oc4cc(OC)cc(OC)c4[C@]2(O)[C@H](O)[C@H](C(=O)N(C)C)[C@H]3c2ccccc2)cc1 in this assay?
Result string: Y

Query string: Could you please tell me the result logged for CCc1cccc(CC)c1C(OC(C)=O)c1cccnc1 (stereo unspecified) in this assay?
Result string: N

Query string: Could you please tell me the result logged for CCC(=O)NC(c1cccs1)c1cc(Cl)c2cccnc2c1O (stereo unspecified) in this assay?
Result string: N

Query string: Could you please tell me the result logged for CN(Cc1ccccc1)C1=CC(=[N+]2CCCCC2)CC(C)(C)C1 in this assay?
Result string: Y

Query string: Could you please tell me the result logged for O=C(N/N=C/c1c(O)ccc2ccccc12)c1ccc(Br)o1 in this assay?
Result string: Y

Query string: Could you please tell me the result logged for O=C(Nc1sc2c(c1C(=O)O)CCCC2)c1ccc(Cl)cc1 in this assay?
Result string: Y

Query string: Could you please tell me the result logged for CC(Oc1ccc(Cl)cc1)C(=O)NCCN1C(=O)S/C(=C\c2cccnc2)C1=O (stereo unspecified) in this assay?
Result string: N

Query string: Could you please tell me the result logged for Cc1ccc2c(c1C)-c1c(ccc(C)c1C)C(=O)C2=O in this assay?
Result string: Y

Query string: Could you please tell me the result logged for Cc1cccc2sc(NNC(=O)c3ccc(S(=O)(=O)N4CC(C)CC(C)C4)cc3)nc12 (stereo unspecified) in this assay?
Result string: N

Query string: Could you please tell me the result logged for CCC1(O)C(=O)OCc2c1cc1n(c2=O)Cc2cc3c(N)cccc3nc2-1 (stereo unspecified) in this assay?
Result string: Y

Query string: Could you please tell me the result logged for CCn1nc(C(=O)OCC(=O)c2ccc3c(c2)OCCO3)c2ccccc2c1=O in this assay?
Result string: N

* * *

Experiment: VP16 transactivation inhibitors, counter-screen for SRC1 inhibitor project, cell-based, luminescence, high throughput (AID 588824)
Details: cell-based VP16 transactivation luciferase luminescence; at 3.6 µM; stronger effect = higher value
Would you mind classing the entries by inhibition? Ranges: lower bin: < 10%; middle bin: ≥ 10% and < 40%; upper bin: ≥ 40%

Query string: Which class does Cc1ccc(C#CC[N+]2(CC#Cc3ccc(C)cc3)CCCCC2)cc1 fall in?
Result string: middle bin

Query string: Which class does c1ccc2c(c1)CCN(c1nc3cc4c(cc3s1)OCCO4)C2 fall in?
Result string: lower bin

Query string: Which class does COc1ccccc1NC(=O)NC1(C(=O)N2CCCCC2)CCCCC1 fall in?
Result string: middle bin

Query string: Which class does CN(c1ccc(C(=O)N2CCN(Cc3ccc4c(c3)OCO4)CC2)cc1)S(=O)(=O)c1ccccc1 fall in?
Result string: middle bin

Query string: Which class does COc1ccc(/C=C2/SC(=S)N(CCC(=O)O)C2=O)cc1 fall in?
Result string: lower bin

Query string: Which class does c1ccc2c(c1)ccc1ncccc12 fall in?
Result string: lower bin

Query string: Which class does Nc1ccn([C@@H]2O[C@H](CO)[C@@H](O)C2O)c(=O)n1 (stereo partly specified) fall in?
Result string: middle bin

Query string: Which class does Cc1ccc(C)c(CN2C(=O)c3ccccc3S(=O)c3ccc(C(=O)N4CCN(c5ccccn5)CC4)cc32)c1 (stereo unspecified) fall in?
Result string: upper bin

Query string: Which class does Cc1cc(CSc2ccccc2)ccc1NC(=O)c1ccc(CN2CCOCC2)cc1 fall in?
Result string: middle bin

Query string: Which class does CCN(CC)S(=O)(=O)c1ccc(N/N=C/c2ccc(O)cc2O)nc1 fall in?
Result string: upper bin
